# maps each entry to its Avg % Remaining at Last Point
- method_notes: Plasma Stability (human)
- Assay type: in vitro ADME

{"columns": ["molecule", "Avg % Remaining at Last Point, %"],
 "data": [
  ["CC(=O)CC(c1ccccc1)c1c(O)c2ccccc2oc1=O (stereo not shown) [Warfarin, reference compound]", 93.6],
  ["N#Cc1ccc(-c2cc(=O)c3ccc4[nH]c(C(F)(F)F)nc4c3o2)cc1", 94.2],
  ["CC(C)[N+](C)(CCOC(=O)C1c2ccccc2Oc2ccccc21)C(C)C [Propantheline, reference compound]", 3.15],
  ["Cn1c(=O)[nH]c2ccc3c(=O)cc(-c4ccc(C#N)cc4)oc3c21", 91.1]
]}
